tested on: OVCAR-3; assay: NCI tumour cell line growth inhibition, 48 h
Active and inactive are the calls of the source. Cut-off read from the data, not from the text of the source: active = GI50 up to about 1.1 µM and inactive = higher.
Outcomes: yes for active, no for inactive

* Cc1ccc(S(=O)(=O)NC(=O)Nc2nnc(S(N)(=O)=O)s2)cc1 | no
* CC(=O)OC1CCC2(C)C(CCC3C2CCC2(C)C(c4ccc(=O)oc4)C(OC(C)=O)CC32O)C1 (stereo unspecified) | yes
* O/N=C1\C=Cc2nn(-c3ccccc3)nc2\C1=N/O | no
* CN(CCc1ccccn1)C(=S)N/N=C/c1ccccn1 | yes
* CCOc1ccc(/C(C=O)=C(\Cl)c2ccc(OC)c(OC)c2)cc1 | no
* SC1=NC2=C(CSC/C2=C\c2ccccc2)C(c2ccccc2)N1 (stereo unspecified) | no
